pIC50 values for the compounds below.
- target.system: sterol 14-reductase (Rattus norvegicus, UniProt A0ACM8Q6X4)
- Construct: microsome which was used as an enzyme source of sterol 14-reductase; from tissue; host or cells: liver microsomes of male Sprague-Dawley rats fed lovastatin and cholestyramine
- Sequence (A0ACM8Q6X4 1-418): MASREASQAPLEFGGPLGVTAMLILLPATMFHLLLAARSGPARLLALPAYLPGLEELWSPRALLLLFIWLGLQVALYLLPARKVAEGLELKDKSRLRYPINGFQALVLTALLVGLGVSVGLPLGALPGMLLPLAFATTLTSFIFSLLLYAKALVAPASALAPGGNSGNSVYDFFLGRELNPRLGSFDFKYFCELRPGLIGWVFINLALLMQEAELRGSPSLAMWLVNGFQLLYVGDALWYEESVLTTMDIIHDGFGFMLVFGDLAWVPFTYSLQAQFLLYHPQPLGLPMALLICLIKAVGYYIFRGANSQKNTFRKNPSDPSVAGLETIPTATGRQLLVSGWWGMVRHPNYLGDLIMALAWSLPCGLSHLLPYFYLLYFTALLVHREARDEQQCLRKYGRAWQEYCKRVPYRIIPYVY
- measurement.description: Inhibition of sterol 14-reductase in rat liver microsomes
- Assay type: biochemical
- measurement.context: read-out: Enzyme Activity (relative in vitro activity for sterol 14-reductase, IC50 class)
pIC50: −log10 of the molar value.

Study these solved cases before continuing.
| compound | pIC50 |
| --- | --- |
| CCOc1cc2c(cc1OCC)-c1c(CC)c3ccc(OC)c(OCc4c(F)c(F)c(F)c(F)c4F)c3c[n+]1CC2 | > 6.00 |
| CCc1c2[n+](cc3c(OCc4ccc(C)cc4C)c(OC)ccc13)CCc1cc(OC)c(OC)cc1-2 | < 4.00 |
| CCc1c2[n+](cc3c(OCc4cc5c(cc4Cl)OCO5)c(OC)ccc13)CCc1cc(OC)c(OC)cc1-2 | < 4.00 |
| CCc1c2[n+](cc3c(OCc4c(F)c(F)c(C(F)(F)F)c(F)c4F)c(OC)ccc13)CCc1cc(O)c(O)cc1-2 | > 6.00 |
| CCc1c2[n+](cc3c(OCc4ccc([N+](=O)[O-])o4)c(OC)ccc13)CCc1cc(OC)c(OC)cc1-2 | 4.00 to 5.00 |

Prompt: Form field: reported pIC50 of CCc1c2[n+](cc3c(OCc4cc(C)ccc4[N+](=O)[O-])c(OC)ccc13)CCc1cc(OC)c(OC)cc1-2
Response: < 4.00

Prompt: Next compound: CCc1c2[n+](cc3c(OCc4ccccc4C(F)(F)F)c(OC)ccc13)CCc1cc(OC)c(OC)cc1-2
Response: 4.00 to 5.00

Prompt: Next compound: CCOc1cc2c(cc1OCC)-c1c(CC)c3ccc(OCC)c(OCc4cccc(C(F)(F)F)c4)c3c[n+]1CC2
Response: 4.00 to 5.00

Prompt: Next compound: CCc1c2[n+](cc3c(OCc4ccc(Cl)nc4)c(OC)ccc13)CCc1cc(OC)c(OC)cc1-2 [Compound No. 17]
Response: > 6.00

Prompt: Next compound: CCCCCCCCCCCCOc1c(OCC)ccc2c(CC)c3[n+](cc12)CCc1cc(OCC)c(OCC)cc1-3
Response: > 6.00

Prompt: Next compound: CCc1c2[n+](cc3c(OCc4ccc(Cl)nc4)c(OC)ccc13)CCc1cc3c(cc1-2)OCO3
Response: 4.00 to 5.00
